# target_or_system: Nonstructural protein 5A (Hepatitis C virus)
# Sequence (whole entry): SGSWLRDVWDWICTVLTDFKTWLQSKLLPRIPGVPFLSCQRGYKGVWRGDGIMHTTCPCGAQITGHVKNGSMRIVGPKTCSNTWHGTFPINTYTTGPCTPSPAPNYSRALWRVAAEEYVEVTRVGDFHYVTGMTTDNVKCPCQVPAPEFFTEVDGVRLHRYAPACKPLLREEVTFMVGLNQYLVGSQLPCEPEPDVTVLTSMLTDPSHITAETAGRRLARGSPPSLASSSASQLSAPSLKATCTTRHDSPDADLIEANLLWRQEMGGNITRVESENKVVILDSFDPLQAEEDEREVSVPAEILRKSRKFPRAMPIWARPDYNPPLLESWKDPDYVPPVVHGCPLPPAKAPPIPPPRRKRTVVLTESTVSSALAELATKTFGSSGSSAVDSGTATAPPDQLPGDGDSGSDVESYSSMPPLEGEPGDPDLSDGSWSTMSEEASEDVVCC
# test_details: Inhibition of HCV NS5A assessed as antiviral activity against HCV by viral replicon assay
# reported_conditions: Hepacivirus hominis
Threshold-based label: EC90 under 0.04 nM gives condition met, EC90 not under 0.04 nM gives condition not met.

COC(=O)N[C@H](C(=O)N1CCC[C@H]1c1nc(-c2ccco2)c(-c2ccc(-c3ccc(-c4[nH]c([C@@H]5CCCN5C(=O)[C@@H](NC(=O)OC)C(C)C)nc4-c4ccco4)cc3)cc2)[nH]1)C(C)C = condition not met
COC(=O)N[C@H](C(=O)N1C[C@@H](n2cc(-c3ccccc3)nn2)C[C@H]1c1ncc(-c2ccc(-c3ccc(-c4cnc([C@@H]5C[C@H](n6cc(-c7ccccc7)nn6)CN5C(=O)[C@@H](NC(=O)OC)C(C)C)[nH]4)cc3)cc2)[nH]1)C(C)C = condition not met
COC(=O)N[C@H](C(=O)N1CCC[C@H]1c1ncc(-c2ccc(-c3ccc(-c4cnc([C@@H]5CCCN5C(=O)[C@@H](NC(=O)OC)C(C)C)[nH]4)cc3)cc2)[nH]1)C(C)C = condition met
COC(=O)N[C@H](C(=O)N1C[C@@H](N=[N+]=[N-])C[C@H]1c1ncc(-c2ccc(-c3ccc(-c4cnc([C@@H]5C[C@H](N=[N+]=[N-])CN5C(=O)[C@@H](NC(=O)OC)C(C)C)[nH]4)cc3)cc2)[nH]1)C(C)C = condition met
COC(=O)N[C@H](C(=O)N1C[C@H](n2cc(C(=O)OC)nn2)C[C@H]1c1ncc(-c2ccc(-c3ccc(-c4cnc([C@@H]5C[C@@H](n6cc(C(=O)OC)nn6)CN5C(=O)[C@@H](NC(=O)OC)C(C)C)[nH]4)cc3)cc2)[nH]1)C(C)C = condition not met
COC(=O)N[C@H](C(=O)N1C[C@@H](N=[N+]=[N-])C[C@H]1c1nc(Br)c(-c2ccc(-c3ccc(-c4[nH]c([C@@H]5C[C@H](N=[N+]=[N-])CN5C(=O)[C@@H](NC(=O)OC)C(C)C)nc4Br)cc3)cc2)[nH]1)C(C)C = condition not met
COC(=O)N[C@H](C(=O)N1C[C@H](N=[N+]=[N-])C[C@H]1c1nc(Br)c(-c2ccc(-c3ccc(-c4[nH]c([C@@H]5C[C@@H](N=[N+]=[N-])CN5C(=O)[C@@H](NC(=O)OC)C(C)C)nc4Br)cc3)cc2)[nH]1)C(C)C = condition met
COC(=O)N[C@H](C(=O)N1C[C@H](N=[N+]=[N-])C[C@H]1c1ncc(-c2ccc(-c3ccc(-c4cnc([C@@H]5C[C@@H](N=[N+]=[N-])CN5C(=O)[C@@H](NC(=O)OC)C(C)C)[nH]4)cc3)cc2)[nH]1)C(C)C = condition not met
COC(=O)N[C@H](C(=O)N1C[C@@H](N=[N+]=[N-])C[C@H]1c1nc(Cl)c(-c2ccc(-c3ccc(-c4[nH]c([C@@H]5C[C@H](N=[N+]=[N-])CN5C(=O)[C@@H](NC(=O)OC)C(C)C)nc4Cl)cc3)cc2)[nH]1)C(C)C = condition not met

###

# Test system: Liver microsomes
# test_details: Intrinsic clearance in human liver microsomes assessed per mg protein at 1 uM measured 5 to 60 mins post dose by LC-MS/MS nethod
# Type: ADME, Microsome
List of CLint values.
assay_endpoint: CLint

COC(=O)N[C@H](C(=O)N1CCC[C@H]1c1nc(Cl)c(-c2ccc(-c3ccc(-c4[nH]c([C@@H]5CCCN5C(=O)[C@@H](NC(=O)OC)C(C)C)nc4Cl)cc3)cc2)[nH]1)C(C)C = 5.8 µL/min/mg
COC(=O)N[C@H](C(=O)N1CCC[C@H]1c1nc(I)c(-c2ccc(-c3ccc(-c4[nH]c([C@@H]5CCCN5C(=O)[C@@H](NC(=O)OC)C(C)C)nc4I)cc3)cc2)[nH]1)C(C)C = 18 µL/min/mg
COC(=O)N[C@H](C(=O)N1CCC[C@H]1c1nc(Br)c(-c2ccc(-c3ccc(-c4[nH]c([C@@H]5CCCN5C(=O)[C@@H](NC(=O)OC)C(C)C)nc4Br)cc3)cc2)[nH]1)C(C)C = 10.3 µL/min/mg
COC(=O)N[C@H](C(=O)N1CCC[C@H]1c1nc(F)c(-c2ccc(-c3ccc(-c4[nH]c([C@@H]5CCCN5C(=O)[C@@H](NC(=O)OC)C(C)C)nc4F)cc3)cc2)[nH]1)C(C)C = 5.6 µL/min/mg

###

pIC50: −log10 of the molar value.
Here's a batch of compounds along with measured pIC50 for UniProt:P05177.
Sequence (P05177 whole entry): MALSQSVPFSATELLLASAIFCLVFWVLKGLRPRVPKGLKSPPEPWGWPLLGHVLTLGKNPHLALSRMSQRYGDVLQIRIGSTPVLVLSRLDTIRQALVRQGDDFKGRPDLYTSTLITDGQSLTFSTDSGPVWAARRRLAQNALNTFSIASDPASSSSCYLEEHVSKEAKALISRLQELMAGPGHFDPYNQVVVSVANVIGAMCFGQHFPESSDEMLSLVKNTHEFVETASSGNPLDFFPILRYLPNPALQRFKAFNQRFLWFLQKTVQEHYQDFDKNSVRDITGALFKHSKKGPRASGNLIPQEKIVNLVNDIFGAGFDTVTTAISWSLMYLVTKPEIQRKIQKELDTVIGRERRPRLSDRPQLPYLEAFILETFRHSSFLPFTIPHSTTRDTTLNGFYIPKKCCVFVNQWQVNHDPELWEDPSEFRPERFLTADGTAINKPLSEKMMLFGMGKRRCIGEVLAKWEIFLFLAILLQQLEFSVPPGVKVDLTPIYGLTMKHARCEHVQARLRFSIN
assay_endpoint: pIC50

COC(=O)N[C@H](C(=O)N1CCC[C@H]1c1nc(Cl)c(-c2ccc(-c3ccc(-c4[nH]c([C@@H]5CCCN5C(=O)[C@@H](NC(=O)OC)C(C)C)nc4Cl)cc3)cc2)[nH]1)C(C)C = < 4.00
COC(=O)N[C@H](C(=O)N1CCC[C@H]1c1nc(F)c(-c2ccc(-c3ccc(-c4[nH]c([C@@H]5CCCN5C(=O)[C@@H](NC(=O)OC)C(C)C)nc4F)cc3)cc2)[nH]1)C(C)C = < 4.00

###

# test_details: Cytotoxicity against human HuH7 cells
# Type: cell-based, Huh-7
assay_endpoint: CC50

COC(=O)N[C@H](C(=O)N1C[C@H](N=[N+]=[N-])C[C@H]1c1nc(Cl)c(-c2ccc(-c3ccc(-c4[nH]c([C@@H]5C[C@@H](N=[N+]=[N-])CN5C(=O)[C@@H](NC(=O)OC)C(C)C)nc4Cl)cc3)cc2)[nH]1)C(C)C = > 1000 nM
COC(=O)N[C@H](C(=O)N1C[C@@H](n2cc(C(=O)OC)nn2)C[C@H]1c1ncc(-c2ccc(-c3ccc(-c4cnc([C@@H]5C[C@H](n6cc(C(=O)OC)nn6)CN5C(=O)[C@@H](NC(=O)OC)C(C)C)[nH]4)cc3)cc2)[nH]1)C(C)C = > 1000 nM
COC(=O)N[C@H](C(=O)N1C[C@H](n2cc(-c3ccccc3)nn2)C[C@H]1c1ncc(-c2ccc(-c3ccc(-c4cnc([C@@H]5C[C@@H](n6cc(-c7ccccc7)nn6)CN5C(=O)[C@@H](NC(=O)OC)C(C)C)[nH]4)cc3)cc2)[nH]1)C(C)C = > 1000 nM

###

# Test system: PBMC
# test_details: Cytotoxicity against human PBMC cells
# Type: cell-based
# reported_conditions: pbmc
Lab note: class by CC50, see bucket A: < 5 µM; bucket B: ≥ 5 µM and < 20 µM; bucket C: ≥ 20 µM

COC(=O)N[C@H](C(=O)N1CCC[C@H]1c1nc(I)c(-c2ccc(-c3ccc(-c4[nH]c([C@@H]5CCCN5C(=O)[C@@H](NC(=O)OC)C(C)C)nc4I)cc3)cc2)[nH]1)C(C)C = bucket A
COC(=O)N[C@H](C(=O)N1C[C@@H](n2cc(C(=O)OC)nn2)C[C@H]1c1ncc(-c2ccc(-c3ccc(-c4cnc([C@@H]5C[C@H](n6cc(C(=O)OC)nn6)CN5C(=O)[C@@H](NC(=O)OC)C(C)C)[nH]4)cc3)cc2)[nH]1)C(C)C = bucket C
COC(=O)N[C@H](C(=O)N1CCC[C@H]1c1nc(-c2ccco2)c(-c2ccc(-c3ccc(-c4[nH]c([C@@H]5CCCN5C(=O)[C@@H](NC(=O)OC)C(C)C)nc4-c4ccco4)cc3)cc2)[nH]1)C(C)C = bucket C
COC(=O)N[C@H](C(=O)N1C[C@H](n2cc(-c3ccccc3)nn2)C[C@H]1c1ncc(-c2ccc(-c3ccc(-c4cnc([C@@H]5C[C@@H](n6cc(-c7ccccc7)nn6)CN5C(=O)[C@@H](NC(=O)OC)C(C)C)[nH]4)cc3)cc2)[nH]1)C(C)C = bucket C
COC(=O)N[C@H](C(=O)N1C[C@@H](N=[N+]=[N-])C[C@H]1c1nc(Br)c(-c2ccc(-c3ccc(-c4[nH]c([C@@H]5C[C@H](N=[N+]=[N-])CN5C(=O)[C@@H](NC(=O)OC)C(C)C)nc4Br)cc3)cc2)[nH]1)C(C)C = bucket A
COC(=O)N[C@H](C(=O)N1C[C@H](N=[N+]=[N-])C[C@H]1c1nc(Cl)c(-c2ccc(-c3ccc(-c4[nH]c([C@@H]5C[C@@H](N=[N+]=[N-])CN5C(=O)[C@@H](NC(=O)OC)C(C)C)nc4Cl)cc3)cc2)[nH]1)C(C)C = bucket B
COC(=O)N[C@H](C(=O)N1C[C@H](N=[N+]=[N-])C[C@H]1c1ncc(-c2ccc(-c3ccc(-c4[nH]c([C@@H]5C[C@@H](N=[N+]=[N-])CN5C(=O)[C@@H](NC(=O)OC)C(C)C)nc4Cl)cc3)cc2)[nH]1)C(C)C = bucket B
COC(=O)N[C@H](C(=O)N1CCC[C@H]1c1ncc(-c2ccc(-c3ccc(-c4[nH]c([C@@H]5CCCN5C(=O)[C@@H](NC(=O)OC)C(C)C)nc4F)cc3)cc2)[nH]1)C(C)C = bucket B
COC(=O)N[C@H](C(=O)N1CCC[C@H]1c1nc(F)c(-c2ccc(-c3ccc(-c4[nH]c([C@@H]5CCCN5C(=O)[C@@H](NC(=O)OC)C(C)C)nc4F)cc3)cc2)[nH]1)C(C)C = bucket B
COC(=O)N[C@H](C(=O)N1C[C@@H](N=[N+]=[N-])C[C@H]1c1nc(Cl)c(-c2ccc(-c3ccc(-c4[nH]c([C@@H]5C[C@H](N=[N+]=[N-])CN5C(=O)[C@@H](NC(=O)OC)C(C)C)nc4Cl)cc3)cc2)[nH]1)C(C)C = bucket A
COC(=O)N[C@H](C(=O)N1C[C@H](n2cc(C(=O)OC)nn2)C[C@H]1c1ncc(-c2ccc(-c3ccc(-c4cnc([C@@H]5C[C@@H](n6cc(C(=O)OC)nn6)CN5C(=O)[C@@H](NC(=O)OC)C(C)C)[nH]4)cc3)cc2)[nH]1)C(C)C = bucket B
COC(=O)N[C@H](C(=O)N1CCC[C@H]1c1nc(Cl)c(-c2ccc(-c3ccc(-c4[nH]c([C@@H]5CCCN5C(=O)[C@@H](NC(=O)OC)C(C)C)nc4Cl)cc3)cc2)[nH]1)C(C)C = bucket A
COC(=O)N[C@H](C(=O)N1CCC[C@H]1c1nc(Br)c(-c2ccc(-c3ccc(-c4[nH]c([C@@H]5CCCN5C(=O)[C@@H](NC(=O)OC)C(C)C)nc4Br)cc3)cc2)[nH]1)C(C)C = bucket A
COC(=O)N[C@H](C(=O)N1CCC[C@H]1c1nc(-c2cccs2)c(-c2ccc(-c3ccc(-c4[nH]c([C@@H]5CCCN5C(=O)[C@@H](NC(=O)OC)C(C)C)nc4-c4cccs4)cc3)cc2)[nH]1)C(C)C = bucket C
COC(=O)N[C@H](C(=O)N1C[C@@H](n2cc(-c3ccccc3)nn2)C[C@H]1c1ncc(-c2ccc(-c3ccc(-c4cnc([C@@H]5C[C@H](n6cc(-c7ccccc7)nn6)CN5C(=O)[C@@H](NC(=O)OC)C(C)C)[nH]4)cc3)cc2)[nH]1)C(C)C = bucket C
COC(=O)N[C@H](C(=O)N1CCC[C@H]1c1nc(-c2ccccc2)c(-c2ccc(-c3ccc(-c4[nH]c([C@@H]5CCCN5C(=O)[C@@H](NC(=O)OC)C(C)C)nc4-c4ccccc4)cc3)cc2)[nH]1)C(C)C = bucket C
